Measured values drawn from patent US11312715B2 for this set.

Assay: PK test of in vivo efficacy: plasma and tumor tissue drug concentration on day 20 of the CT26 study
Set-up: species or system BALB/C mice
Conditions: BALB/C, mouse, plasma, po, 100 mg/kg, Group 3: 100 mg/kg once a day PO alone; day 20; plasma
Protocol: The experiment was conducted on the basis of experimental example 3, on the 20th day after administration, blood samples and tissues were collected from each group at different time points (0 h, 0.25 h, 0.5 h, 1 h, 2 h, 4 h, 8 h and 24 h) after administration.
Structures can show the parent of a compound that is named as a salt.
Measurement Type: AUC(0-t) (µM·h)

{"columns": ["Compound", "Unit String", "Measured Result"],
 "data": [
  ["Nc1nc(-c2ccc(F)cc2)c(-c2ccc3ncnn3c2)c2nccnc12 [Embodiment 6 hydrochloride]", "µM·h", 145]
]}
